Data credit: patent US10934310B2

Molecular target: unphosphorylated-BTK kinase domain (UP-BTK), GST-tagged human BTK (389-659aa) (Homo sapiens (Human), UniProt Q06187)
Sequence (Q06187 389-659): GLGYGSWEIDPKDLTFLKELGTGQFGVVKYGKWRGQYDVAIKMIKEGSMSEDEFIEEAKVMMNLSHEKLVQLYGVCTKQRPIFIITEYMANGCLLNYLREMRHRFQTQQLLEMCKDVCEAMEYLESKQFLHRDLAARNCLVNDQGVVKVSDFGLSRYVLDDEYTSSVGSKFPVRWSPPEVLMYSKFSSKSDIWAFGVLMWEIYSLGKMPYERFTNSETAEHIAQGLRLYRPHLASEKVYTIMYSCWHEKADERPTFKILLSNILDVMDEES
Assay: BTK Kinase Lanthascreen Binding Assay
Settings: read-out: BTK_I_binding pIC50 (converted)
Items are presented alongside their recorded IC50.

# COMPOUND, IC50
rows = [
    ("N[C@H]1CC[C@H](NC(=O)c2sc3nccc4c3c2NC(=O)N4c2ccc(Oc3ccccc3)nc2)C1 (racemic)", "2240 nM"),
    ("Cc1cc(OC(C)C)ccc1N1C(=O)Nc2c(C(=O)N[C@@H]3CCCC[C@@H]3N)sc3nccc1c23", "> 1000 nM"),
    ("Cc1cc(OC2CCOCC2)ccc1N1C(=O)Nc2c(C(=O)N[C@@H]3CCC[C@@H]3N)sc3nccc1c23", "> 1000 nM"),
]

Reported IC50 ( C=CC(=O)N[C@H]1CCCC[C@H]1NC(=O)c1sc2nccc3c2c1NC(=O)N3c1cnc(Oc2cccnn2)cc1C ) = > 1000 nM

Reported IC50 ( CC(C)c1cccc(N2C(=O)Nc3c(C(=O)N[C@@H]4CCC[C@@H]4N)sc4nccc2c34)c1 ) = > 1000 nM
